Below, each of the molecules is paired with its reported HSA Binding value.
Biological target: human serum albumin (Homo sapiens, UniProt P02768)
Sequence (P02768 25-609): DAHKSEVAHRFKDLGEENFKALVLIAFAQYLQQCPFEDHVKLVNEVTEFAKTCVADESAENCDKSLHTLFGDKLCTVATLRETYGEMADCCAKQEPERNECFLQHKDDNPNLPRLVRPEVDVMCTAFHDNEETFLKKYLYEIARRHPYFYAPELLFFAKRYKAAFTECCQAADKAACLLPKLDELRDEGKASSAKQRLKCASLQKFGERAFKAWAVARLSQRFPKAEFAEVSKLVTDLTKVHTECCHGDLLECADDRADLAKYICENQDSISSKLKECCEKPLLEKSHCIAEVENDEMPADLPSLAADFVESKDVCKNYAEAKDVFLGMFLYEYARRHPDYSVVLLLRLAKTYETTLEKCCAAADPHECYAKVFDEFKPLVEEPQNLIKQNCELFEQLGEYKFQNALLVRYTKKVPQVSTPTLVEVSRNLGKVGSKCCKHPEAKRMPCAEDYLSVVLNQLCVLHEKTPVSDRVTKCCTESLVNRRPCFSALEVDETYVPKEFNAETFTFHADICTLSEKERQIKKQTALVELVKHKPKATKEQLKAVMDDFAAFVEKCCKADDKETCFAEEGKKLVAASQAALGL
Test: Human serum albumin (HSA) binding, chromatographic
Type: in vitro ADME

{"molecule": "CC(C)Cc1n[nH]c2c1C(c1ccc(F)cc1)N(c1ccc(O)cc1)C2=O (centres unmarked) [Compound 18]", "tested.on": "human serum albumin (Homo sapiens, UniProt P02768)", "HSA Binding": "95.6%"}
{"molecule": "COc1ccc(N2C(=O)c3[nH]nc(CC(C)C)c3C2c2ccc(F)cc2C)cc1F (centres unmarked) [Compound 73]", "tested.on": "human serum albumin (Homo sapiens, UniProt P02768)", "HSA Binding": "96.3%"}
{"molecule": "Cc1ccc(CN2C(=O)c3[nH]nc(CC(C)C)c3C2c2ccc(F)cc2)o1 (centres unmarked) [Compound 35]", "tested.on": "human serum albumin (Homo sapiens, UniProt P02768)", "HSA Binding": "97.2%"}
{"molecule": "COc1ccc(N2C(=O)c3[nH]nc(-c4ccc5c(c4)CCC5)c3C2c2ccc(F)cc2)cc1 (centres unmarked) [Compound 16]", "tested.on": "human serum albumin (Homo sapiens, UniProt P02768)", "HSA Binding": "97.8%"}
{"molecule": "C=CCCc1n[nH]c2c1C(c1ccc(F)cc1)N(c1ccc(OC)cc1)C2=O (centres unmarked) [Compound 12]", "tested.on": "human serum albumin (Homo sapiens, UniProt P02768)", "HSA Binding": "97.5%"}
{"molecule": "CC(C)Cc1n[nH]c2c1C(c1ccc(F)cc1)N(c1ccc(N(C)C)cc1)C2=O (centres unmarked) [Compound 21]", "tested.on": "human serum albumin (Homo sapiens, UniProt P02768)", "HSA Binding": "96.1%"}
{"molecule": "CC(C)Cc1n[nH]c2c1C(c1ccc(F)cc1)N(c1ccc(C(C)(C)C)cc1)C2=O (centres unmarked) [Compound 25]", "tested.on": "human serum albumin (Homo sapiens, UniProt P02768)", "HSA Binding": "97.9%"}
{"molecule": "COc1ccc(N2C(=O)c3[nH]nc(CC(C)C)c3C2c2cccc(F)c2)cc1 (centres unmarked) [Compound 58]", "tested.on": "human serum albumin (Homo sapiens, UniProt P02768)", "HSA Binding": "96.9%"}
{"molecule": "COc1ccc(N2C(=O)c3[nH]nc(CC(C)(C)C)c3C2c2ccc(F)cc2)cc1 (centres unmarked) [Compound 10]", "tested.on": "human serum albumin (Homo sapiens, UniProt P02768)", "HSA Binding": "97.4%"}
{"molecule": "COc1ccc(N2C(=O)c3[nH]nc(CC(C)C)c3C2c2ccc(F)c(F)c2)cc1 (centres unmarked) [Compound 65]", "tested.on": "human serum albumin (Homo sapiens, UniProt P02768)", "HSA Binding": "96.2%"}
{"molecule": "COc1ccc(N2C(=O)c3[nH]nc(CC(C)C)c3C2c2cccc(Cl)c2)cc1 (centres unmarked) [Compound 59]", "tested.on": "human serum albumin (Homo sapiens, UniProt P02768)", "HSA Binding": "96.8%"}
{"molecule": "COc1ccccc1C1c2c(CC(C)C)n[nH]c2C(=O)N1c1ccc(Br)cc1 (centres unmarked) [Compound 75]", "tested.on": "human serum albumin (Homo sapiens, UniProt P02768)", "HSA Binding": "97.5%"}
{"molecule": "COc1ccc(N2C(=O)c3[nH]nc(-c4ccc(CC(C)C)cc4)c3C2c2ccc(F)cc2)cc1 (centres unmarked) [Compound 17]", "tested.on": "human serum albumin (Homo sapiens, UniProt P02768)", "HSA Binding": "98.0%"}
{"molecule": "CCc1ccc(N2C(=O)c3[nH]nc(CC(C)C)c3C2c2ccc(F)cc2)cc1 (centres unmarked) [Compound 22]", "tested.on": "human serum albumin (Homo sapiens, UniProt P02768)", "HSA Binding": "97.4%"}
{"molecule": "COC(=O)c1ccc(C2c3c(CC(C)C)n[nH]c3C(=O)N2c2ccc(OC)cc2)cc1 (centres unmarked) [Compound 51]", "tested.on": "human serum albumin (Homo sapiens, UniProt P02768)", "HSA Binding": "95%"}
{"molecule": "CC(C)Cc1n[nH]c2c1C(c1ccc(F)cc1)N(c1ccc(C(=O)O)cc1)C2=O (centres unmarked) [Compound 27]", "tested.on": "human serum albumin (Homo sapiens, UniProt P02768)", "HSA Binding": "95.2%"}
{"molecule": "CCOc1ccc(N2C(=O)c3[nH]nc(CC(C)C)c3C2c2ccc(F)cc2)cc1 (centres unmarked) [Compound 19]", "tested.on": "human serum albumin (Homo sapiens, UniProt P02768)", "HSA Binding": "97.5%"}
